Target: T1, biotinylated CRH (human and mouse, not fully specified; biotinylated, position not stated)
T1 construct: also called Biotin-CRH; biotin-labeled CRH
T1 peptide: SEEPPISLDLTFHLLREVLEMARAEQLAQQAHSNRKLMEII
Assay: competitive ELISA, coated 1st mAb; competitor PR004290
resultType: % Inhibition
Record the result as a number with its unit.

Request: // returns reported % Inhibition for input PR302064 (antibody, human IgG1, kappa, V domains shown, Humanized variant of PR301777) VH: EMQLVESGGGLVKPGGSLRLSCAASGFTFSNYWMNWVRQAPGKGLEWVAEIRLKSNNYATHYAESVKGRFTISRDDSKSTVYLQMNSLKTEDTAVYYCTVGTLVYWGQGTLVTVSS VL: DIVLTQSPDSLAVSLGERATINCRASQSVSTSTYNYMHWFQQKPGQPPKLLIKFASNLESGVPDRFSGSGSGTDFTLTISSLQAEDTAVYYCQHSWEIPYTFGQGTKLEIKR
Response: 93%

Request: Follow-up item: PR302050 (antibody, human IgG1, kappa, V domains shown, Humanized variant of PR301777) VH: EMQLVESGGGLVQPGGSLKLSCAASGFTFSNYWMNWVRQASGKGLEWVAEIRLKSNNYATHYAESVKGRFTISRDDSKSTVYLQMNSLKTEDTAVYYCTVGTLVYWGQGTLVTVSS VL: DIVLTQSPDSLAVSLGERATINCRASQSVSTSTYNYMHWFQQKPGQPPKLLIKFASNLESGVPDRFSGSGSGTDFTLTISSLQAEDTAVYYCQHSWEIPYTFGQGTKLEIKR
Response: 94%

Request: Now consider PR302069 (antibody, human IgG1, kappa, V domains shown, Humanized variant of PR301777) VH: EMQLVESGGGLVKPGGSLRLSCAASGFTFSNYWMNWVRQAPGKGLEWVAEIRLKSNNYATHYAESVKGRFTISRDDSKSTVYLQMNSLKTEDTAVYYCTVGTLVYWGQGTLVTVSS VL: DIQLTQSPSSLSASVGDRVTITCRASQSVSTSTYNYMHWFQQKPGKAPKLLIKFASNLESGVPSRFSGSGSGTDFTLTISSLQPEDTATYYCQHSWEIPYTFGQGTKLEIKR and answer again.
Response: 93%

Request: Continue with PR302055 (antibody, human IgG1, kappa, V domains shown, Humanized variant of PR301777) VH: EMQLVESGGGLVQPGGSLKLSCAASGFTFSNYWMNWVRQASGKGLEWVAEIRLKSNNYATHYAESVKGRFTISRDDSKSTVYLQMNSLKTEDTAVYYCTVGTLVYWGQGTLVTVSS VL: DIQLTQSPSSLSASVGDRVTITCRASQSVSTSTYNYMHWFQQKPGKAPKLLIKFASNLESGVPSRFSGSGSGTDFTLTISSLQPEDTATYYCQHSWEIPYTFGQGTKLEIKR
Response: 94%

Cited source: patent US20260042834A1
